- targetOrTestSystem: recombinant DYRK1A kinase (Homo sapiens (Human))
- experimentalProtocol: DYRK1A kinase assay (Ser/Thr 18 peptide Z-lyte FRET assay)
- conditionDescription: DYRK1A kinase activity; 15 μM ATP, 1 h room temperature; method text calls the value IC50
With a cut-off of 7 nM, any EC50 strictly below it is called Fulfilled; any EC50 meeting it or above is called Not fulfilled.

{"compound": "Cn1cc(-c2c[nH]c3nc(NC4CCC(F)(F)CC4)ncc23)ccc1=O", "targetOrTestSystem": "recombinant DYRK1A kinase (Homo sapiens (Human))", "groupLabel": "Not fulfilled"}
{"compound": "CO[C@H]1CC[C@@H](Nc2ncc3c(-c4ccn5nccc5c4)c[nH]c3n2)CC1", "targetOrTestSystem": "recombinant DYRK1A kinase (Homo sapiens (Human))", "groupLabel": "Fulfilled"}
{"compound": "FC1(F)CCC(Nc2ncc3c(-c4ccc5nccn5n4)c[nH]c3n2)CC1", "targetOrTestSystem": "recombinant DYRK1A kinase (Homo sapiens (Human))", "groupLabel": "Fulfilled"}
{"compound": "C[C@@H](NC(=O)c1cnn2ccc(-c3c[nH]c4nc(C5CC5)ncc34)cc12)C(F)(F)F", "targetOrTestSystem": "recombinant DYRK1A kinase (Homo sapiens (Human))", "groupLabel": "Not fulfilled"}
{"compound": "COc1nc(N[C@H]2CC[C@@H](OCC(F)F)CC2)nc2[nH]cc(-c3ccn4nccc4c3)c12", "targetOrTestSystem": "recombinant DYRK1A kinase (Homo sapiens (Human))", "groupLabel": "Fulfilled"}
{"compound": "Fc1cc(-c2c[nH]c3nc(C4CC4)ncc23)cn2c(C(F)F)cnc12", "targetOrTestSystem": "recombinant DYRK1A kinase (Homo sapiens (Human))", "groupLabel": "Not fulfilled"}
{"compound": "O=C(NCC(F)F)c1cnn2ccc(-c3c[nH]c4nc(C5CC5)ncc34)cc12", "targetOrTestSystem": "recombinant DYRK1A kinase (Homo sapiens (Human))", "groupLabel": "Fulfilled"}

###

- targetOrTestSystem: recombinant DYRK1A kinase (Homo sapiens (Human))
- experimentalProtocol: DYRK1A kinase assay (Ser/Thr 18 peptide Z-lyte FRET assay)
- conditionDescription: DYRK1A kinase activity; 15 μM ATP, 1 h room temperature; method text calls the value IC50
- Method: Representative compounds were screened using the assay procedure for DYRK1A kinase activity as described below. Each compound was dissolved in DMSO as a 10 mM stock and used to prepare compound source plates. […] The Emission ratio (Em) was calculated as a ratio of the coumarin (C) emission signal (at 445 nm)/Fluorescein (F) emission signal (at 520 nm). The percent phosphorylation was then calculated using the following formula: [1−((Em ratio×F100%)−C100%)/((C0%−C100%)+(Em ratio×(F100%−F0%)))]. […]
With a cut-off of 10 nM, any EC50 strictly below it is called 1; any EC50 meeting it or above is called -1.

{"compound": "Cc1nc2cnc(-c3c[nH]c4nc(C5CCC5)ncc34)cc2n1C(C)C", "groupLabel": -1}
{"compound": "Cc1nc2c(F)cc(-c3c[nH]c4nc(NCC(C)C)ncc34)cc2n1C(C)C", "groupLabel": 1}
{"compound": "[2H]C([2H])([2H])O[C@H]1CC[C@@H](Nc2ncc3c(-c4ccc5nccnc5c4)c[nH]c3n2)CC1", "groupLabel": -1}
{"compound": "Cc1cnc2c(F)cc(-c3c[nH]c4nc(NC5CCC(F)(F)CC5)ncc34)cn12", "groupLabel": 1}
{"compound": "CN1CCC(Nc2ncc3c(-c4ccn5ncc(-c6cnn(C)c6)c5c4)c[nH]c3n2)CC1", "groupLabel": 1}
{"compound": "CCOc1nc(N[C@H](C)C(F)(F)F)nc2[nH]cc(-c3ccc4nnn(C)c4c3)c12", "groupLabel": -1}
{"compound": "O=C(NCC(F)F)c1cnn2ccc(-c3c[nH]c4nc(C5CCC5)ncc34)cc12", "groupLabel": -1}
{"compound": "C[C@@H](Nc1ncc2c(-c3ccc4nccn4c3)c[nH]c2n1)C(F)(F)F", "groupLabel": 1}
{"compound": "CCOc1nc(N[C@H]2CC[C@@H](O)CC2)nc2[nH]cc(-c3ccc4nnn(C)c4c3)c12", "groupLabel": 1}
{"compound": "Cc1nc2c(F)cc(-c3c[nH]c4nc(C5CC5)ncc34)cc2n1C(C)C", "groupLabel": 1}
{"compound": "COc1nc(CC(C)C)nc2[nH]cc(-c3ccc4ncccc4c3)c12", "groupLabel": -1}
{"compound": "Nc1ncc2c(-c3ccc4ncccc4c3)c[nH]c2n1", "groupLabel": 1}
{"compound": "C[C@@H](Nc1ncc2c(-c3ccn4ncc(Cl)c4n3)c[nH]c2n1)C(F)(F)F", "groupLabel": -1}
{"compound": "CC(C)CNc1ncc2c(-c3cc(F)c4ncnn4c3)c[nH]c2n1", "groupLabel": -1}
{"compound": "CC(C)Nc1ncc2c(-c3ccn4ncc(C(=O)NCC5CC(F)(F)C5)c4c3)c[nH]c2n1", "groupLabel": -1}
{"compound": "CC(C)(F)CNc1ncc2c(-c3ccc4ncncc4c3)c[nH]c2n1", "groupLabel": -1}
{"compound": "Cc1nc2c(F)cc(-c3c[nH]c4nc(N5CCC5)ncc34)cc2n1C(C)C", "groupLabel": -1}

###

In this section, each of the compounds is paired with its reported log10(EC50).
- targetOrTestSystem: recombinant DYRK1A kinase (Homo sapiens (Human))
- experimentalProtocol: DYRK1A kinase assay (Ser/Thr 18 peptide Z-lyte FRET assay)
- conditionDescription: DYRK1A kinase activity; 15 μM ATP, 1 h room temperature; method text calls the value IC50
observable: log10(EC50) (log10 of the value in nM)

{"compound": "CC1(CNc2ncc3c(-c4ccc5nccn5n4)c[nH]c3n2)CC1", "valueMeasured": 0.60}
{"compound": "[2H]C([2H])([2H])O[C@H]1CC[C@@H](Nc2nc(OC)c3c(-c4ccn5nccc5c4)c[nH]c3n2)CC1", "valueMeasured": 0.53}
{"compound": "O=C(NC1CC(F)(F)C1)c1cnn2ccc(-c3c[nH]c4nc(C5CC5)ncc34)cc12", "valueMeasured": 0.41}
{"compound": "Cc1nc2ccc(-c3c[nH]c4nc(NCC(C)(C)F)ncc34)nc2n1C", "valueMeasured": 2.73}
{"compound": "C[C@]1(O)CC[C@@H](Nc2ncc3c(-c4ccn5nccc5c4)c[nH]c3n2)CC1", "valueMeasured": 0.77}
{"compound": "CC(C)Cc1ncc2c(-c3ccc4nccn4n3)c[nH]c2n1", "valueMeasured": 1.82}
{"compound": "CN1CCN(c2ccc(CNc3ncc4c(-c5ccc6ncccc6c5)c[nH]c4n3)cn2)CC1", "valueMeasured": 0.56}
{"compound": "COc1nc(N[C@H]2CC[C@H](OC(F)F)CC2)nc2[nH]cc(-c3ccc4nccn4c3)c12", "valueMeasured": 1.47}

###

- targetOrTestSystem: recombinant DYRK1A kinase (Homo sapiens (Human))
- experimentalProtocol: DYRK1A kinase assay (Ser/Thr 18 peptide Z-lyte FRET assay)
- conditionDescription: DYRK1A kinase activity; 15 μM ATP, 1 h room temperature; method text calls the value IC50
In this section, each of the compounds is paired with its reported EC50.

{"compound": "COc1nc(N)nc2[nH]cc(-c3ccn4nccc4c3)c12 [Compound 3291]", "readoutUnits": "nM", "EC50": 1.1}
{"compound": "[2H]C([2H])([2H])Oc1nc(N[C@H]2CC[C@@H](OC)CC2)nc2[nH]cc(-c3ccc4nnn(C)c4c3)c12 [Compound 3115]", "readoutUnits": "nM", "EC50": 1.3}
{"compound": "C[C@H](Nc1ncc2c(-c3ccc4nccn4c3)c[nH]c2n1)C(F)(F)F [Compound 116]", "readoutUnits": "nM", "EC50": 9.6}
{"compound": "C[C@H](Nc1ncc2c(-c3cnc4nccn4c3)c[nH]c2n1)C(F)(F)F [Compound 464]", "readoutUnits": "nM", "EC50": 9.5}
{"compound": "[2H]C([2H])([2H])O[C@H]1CC[C@@H](Nc2nc(OC)c3c(-c4cc(F)c5nccn5c4)c[nH]c3n2)CC1 [Compound 2256]", "readoutUnits": "nM", "EC50": 15}
{"compound": "C[C@H](Nc1ncc2c(-c3ccc4nccn4n3)c[nH]c2n1)C(F)(F)F [Compound 913]", "readoutUnits": "nM", "EC50": 6.4}
{"compound": "c1cc2cc(-c3c[nH]c4nc(NC5CCOCC5)ncc34)ccn2n1 [Compound 1148]", "readoutUnits": "nM", "EC50": 4.2}
{"compound": "CC(C)(F)CNc1ncc2c(-c3ccc4ncc(F)n4c3)c[nH]c2n1 [Compound 155]", "readoutUnits": "nM", "EC50": 11.7}
{"compound": "CN1CCC(Nc2ncc3c(-c4ccc5ncnn5c4)c[nH]c3n2)CC1 [Compound 750]", "readoutUnits": "nM", "EC50": 26.9}
{"compound": "COc1nc(CC(C)C)nc2[nH]cc(-c3cc(F)c4nccn4c3)c12 [Compound 187]", "readoutUnits": "nM", "EC50": 20.3}
{"compound": "COc1nc(NC2CCOCC2)nc2[nH]cc(-c3ccn4nccc4n3)c12 [Compound 2224]", "readoutUnits": "nM", "EC50": 10.7}
{"compound": "Cc1cnc2ccc(-c3c[nH]c4nc(NCC(C)(C)F)ncc34)nn12 [Compound 1038]", "readoutUnits": "nM", "EC50": 4.2}
{"compound": "Cc1nc2ccc(-c3c[nH]c4nc(C5CC5)ncc34)c(F)c2n1C(C)C [Compound 540]", "readoutUnits": "nM", "EC50": 25.5}
{"compound": "c1nc2ccc(-c3c[nH]c4nc(C5CCC5)ncc34)cn2n1 [Compound 721]", "readoutUnits": "nM", "EC50": 852}
{"compound": "CO[C@H]1CC[C@H](Nc2ncc3c(-c4ccn5nccc5n4)c[nH]c3n2)CC1 [Compound 3420]", "readoutUnits": "nM", "EC50": 5.6}
{"compound": "Cn1nnc2ccc(-c3c[nH]c4nc(NCC(C)(C)F)ncc34)cc21 [Compound 822]", "readoutUnits": "nM", "EC50": 2.9}
{"compound": "c1cn2nc(-c3c[nH]c4nc(NC5CCOCC5)ncc34)ccc2n1 [Compound 930]", "readoutUnits": "nM", "EC50": 4}
